- System: HCT-15 colon
- experiment summary: NCI-60 one-dose screen, 48 h (100 = growth as untreated, 0 = no growth, -100 = all killed)
- cond: 10 µM unless noted
About 83,000 compounds went through this panel and 20% of them were active in at least one assay; those are over-represented in the sample as a whole. Activity calls are given as the source filed them. How the source made its calls: active means growth percent below 10; inactive means the rest.
readout label: growth

Illustrative cases are given below, each with its answer.
compound: CCC(C)C1NC(=O)C(CCNCS(=O)(=O)O)NC(=O)C(NC(=O)C(CCNCS(=O)(=O)O)NC(=O)C(NC(=O)C(CCNCS(=O)(=O)O)NC(=O)CCCCC(C)C)C(C)O)CCNC(=O)C(C(C)O)NC(=O)C(CCNCS(=O)(=O)O)NC(=O)C(CCNCS(=O)(=O)O)NC(=O)C(C(C)CC)NC1=O (centres undefined)
growth: 99.6% (inactive)
//
compound: COc1ccc2cc(-c3nc4ccccc4[nH]3)c(=O)oc2c1
growth: 94.2% (inactive)
//
compound: Nc1ccc2c(c1)Cc1cc(Cl)c(Cl)cc1-2
growth: 51.5% (inactive)
//
compound: COc1cc(/C=N/OC(=O)Nc2ccccc2)cc(OC)c1OC
growth: 112% (inactive)
//
compound: CC(C)CNc1nc(N=[N+]=[N-])nc(NCC(C)C)n1
growth: 54% [100 µM] (inactive)

Kindly state the measured growth obtained for FC(F)(F)c1ccc(-c2cnc(-c3nn[nH]n3)nc2NC2CCCCCC2)cc1 with HCT-15 colon.
38.7% [50 µM] (inactive)

What value of growth on HCT-15 colon does Cc1ccc(NC(=O)c2sc3nc4c(cc3c2N)C(=O)CCC4)cc1 have?
58.6% (inactive)

Param readout= growth; system= HCT-15 colon; entry= COc1cc(-c2n[nH]nc2-c2ccccn2)cc(OC)c1OC ; returns value.
76.8% (inactive)

Find growth (HCT-15 colon) for the entry CCOC(=O)N1CCC(N=C2CSc3nnc(-c4cc(C(F)(F)F)cc(C(F)(F)F)c4)n3N2)CC1
25.2% (inactive)

* * *

- System: NCI/ADR-RES ovarian
- experiment summary: NCI-60 one-dose screen, 48 h
- cond: 10 µM unless noted
Compounds without any hit were thinned out: in the full panel of roughly 83,000, 20% have a hit. Activity calls are given as the source filed them. How the source made its calls: active means growth percent below 10; inactive means the rest.
Give one outcome, nothing more. List: active, inactive

Worked examples follow.
compound: CC(C)CC1NC(=O)C(CCCN)NC(=O)C(C(C)C)NC(=O)C2CCCN2C(=O)C(Cc2ccccc2)NC(=O)C(CC(C)C)NC(=O)C(CCCN)NC(=O)C(C(C)C)NC(=O)C2CCCN2C(=O)C(Cc2ccccc2)NC1=O (configuration not stated)
group: active
//
compound: COc1cc(C2CC(C3C(=O)N(C)C(=O)N(C)C3=O)=NN2c2cc(Cl)cc(Cl)c2)cc(OC)c1OC (configuration not stated)
group: inactive
//
compound: CCSc1nc(-c2ccco2)n2nc(-c3ccco3)cc2n1
group: inactive
//
compound: O=C1C(=O)c2c(nc3ccc(Cl)cn23)-c2ccccc21
group: active

Please state the recorded outcome for this compound: Cn1cnc([N+](=O)[O-])c1Sc1nc(N)nc2nc[nH]c12
inactive

# fetch the recorded call for C[C@@H]1[C@H]2[C@H](C=C3[C@@H]4CC[C@H]5Cc6nc7c(nc6C[C@]5(C)[C@H]4C[C@@H](O)[C@@]32C)C[C@@H]2CC[C@H]3C4=C[C@@H]5O[C@@]6(CC[C@](C)(CO)O6)[C@@H](C)[C@@]5(O)[C@@]4(C)[C@H](O)C[C@@H]3[C@@]2(C)C7)O[C@]12CCC(C)(C)O2 here
inactive

For this compound, state the assay outcome: O=C(CNc1ccc2c(c1)C(=O)c1ccccc1C2=O)Nc1ccc2c(c1)C(=O)c1ccccc1C2=O
active

Identify the outcome logged in this assay for the compound shown: COc1cc(Cl)cc(-c2nn(-c3cccc(NC(=O)c4cc(C(F)(F)F)cc(C(F)(F)F)c4)c3)cc2-c2ccncc2)c1
inactive

In this assay, the call recorded for FCc1ncc(-c2ccc(C(F)(F)F)cc2)c(NC2CCCCCC2)n1 was what?
inactive

Called result for CCOC(=O)/C(=C/CC/C(C)=C/CC/C(C)=C/CCc1ccoc1)CC(=O)N1CCCCC1
inactive

Tell me the assay call for CCCCc1n(Cc2ccc3ccccc3c2)cc[n+]1Cc1ccc2ccccc2c1 please.
inactive

Give the logged outcome of this assay for the following compound: O=C(/C=C/c1c(-c2ccccc2)[nH]c2ccccc12)S(=O)(=O)c1ccccc1
inactive

Recorded test outcome, item COc1cc(OC)c2c(c1Cl)O[C@]1(C2=O)C(OCc2ccccc2)=CC(=O)C[C@H]1C
active

Record request — test call for FC(F)(F)c1cc(-c2nnc3n2N=C(N2CCCC2)CS3)cc(C(F)(F)F)c1
inactive

Entry N#CC1c2ccccc2C=CN1C(=O)N(c1ccccc1)c1ccccc1 (configuration not stated) : call = ?
inactive

Dear all, I need the recorded test outcome for CC1(C)CC2(C)CC(=O)C1C(C(=O)O)C2C(=O)O (configuration not stated) , thank you.
inactive

Just curious, what result did CC(C)N(Cc1ccccc1)c1c(Cl)ssc1=O get here?
inactive

* * *

- System: NCI-H226 lung
- experiment summary: NCI-60 one-dose screen, 48 h
- cond: 10 µM unless noted
About 83,000 compounds went through this panel and 20% of them were active in at least one assay; those are over-represented in the sample as a whole. Calls of active or inactive are those of the source. Rule for the calls: active = growth percent below 10; inactive = the rest.
The reply should name one outcome from Y for active, N for inactive

GET /call?item= O=C(CC1Sc2ccccc2NC1=O)NNc1cccc(Cl)c1Cl (stereo not given) returns the recorded outcome of this test.
N

Returns: the outcome recorded for N#Cc1c(-c2ccccc2)cc(-c2ccccc2)n(CC(=O)O)c1=O in this assay.
N

In this assay, the call recorded for C[C@H]1O[C@@H](O[C@H]2[C@@H](O)C[C@H](O[C@H]3[C@@H](O)C[C@H](O[C@H]4CC[C@]5(C)C6C[C@@H](O)[C@]7(C)[C@@H](C8=CC(=O)OC8)CC[C@]7(O)C6CC[C@@H]5C4)O[C@@H]3C)O[C@@H]2C)C[C@H](O)[C@@H]1O (stereo not given in full) was what?
Y

Record lookup: outcome of this test for C1=C(Cc2ccccc2)n2cnc3ncnc(c32)S1 ?
N

Give the logged outcome of this assay for the following molecule: CCCCCCCCN(CCO)CCCCCCCC
N

So what was the verdict on COCCOCCOCCOCCOc1ccc2c(c1)C(=O)c1nc3ncccc3c(=O)n1-2 in this test?
Y

GET /call?item= C/C=C(/C(=C/C)c1ccc(O)cc1)c1ccc(O)cc1 returns the recorded outcome of this test.
N

Assay result, entry COc1ccc2c(c1)CC[C@@H]1[C@@H]2CC[C@]2(C)[C@@H](O)C(=O)C[C@@H]12 — outcome?
N

Recorded call for CCOC(=O)C(Br)=P(c1ccccc1)(c1ccccc1)c1ccccc1 ?
N

// outcome(item) with item = C[C@]12CCC(=O)C=C1CC[C@H]1[C@@H]3C[C@@H](O)[C@](O)(C(=O)CO)[C@@]3(C)C[C@H](O)[C@@]12F
N

// return assay outcome for O=C(O)CNC(=O)C1(N2C(=O)c3ccccc3C2=O)CCCC1
N

Test call for this molecule, please: N#Cc1ccccc1C#Cc1ccccc1C#Cc1ccc(OCCCCCCOc2ccc(C#Cc3ccccc3C#Cc3ccccc3C#N)cc2)cc1
N

Look up the recorded call for CNc1nc(NC2CCCC2)nc(Sc2ccc(OC)cc2)n1 in this test.
N

# lookup: test call for O=C(CC(C(=O)c1ccccc1)N1CCN(Cc2ccccc2)CC1)c1ccccc1 (stereo not given)
N

Outcome? O=CNc1ccc2c(c1)Cc1cc([N+](=O)[O-])ccc1-2
N

* * *

- System: DU-145 prostate
- experiment summary: NCI-60 one-dose screen, 48 h (100 = growth as untreated, 0 = no growth, -100 = all killed)
- cond: 10 µM unless noted
The panel holds about 83,000 compounds, 20% with a hit somewhere; the sample as a whole holds those more often. The source made the active and inactive calls. Rule for the calls: active = growth percent below 10; inactive = the rest.
readout label: growth

molecule: Cc1cnc2nc(-c3ccc(N(C)C)cc3)cn2c1
target entity: DU-145 prostate
readout label: growth
result: 109% (inactive)
--
molecule: O=C1CSC(c2ccccc2O)N1c1nnc(Cn2ccnc2)o1 (stereo not given)
target entity: DU-145 prostate
readout label: growth
result: 80.9% (inactive)
--
molecule: COc1ccccc1-n1c(-c2ccc(O)cc2C)cn2c3c(=O)[nH]c(=O)n(C)c3nc12
target entity: DU-145 prostate
readout label: growth
result: 112% (inactive)
--
molecule: NC(=NCCCCCCN=C(N)/N=C(\N)Nc1ccc(Cl)cc1)/N=C(\N)Nc1ccc(Cl)cc1
target entity: DU-145 prostate
readout label: growth
result: 33.2% (inactive)
--
molecule: COc1ccccc1NC(=O)c1sc2nc3c(cc2c1N)C(=O)CCC3
target entity: DU-145 prostate
readout label: growth
result: 86.6% (inactive)

Look up growth with DU-145 prostate for this molecule: Nc1nc(Nc2ccccc2SSc2ccccc2Nc2nc(N)nc(-c3cccc(Cl)c3)n2)nc(-c2cccc(Cl)c2)n1
97% (inactive)

Find the measured growth: item O=C(CNC(=O)c1cccc2ccccc12)Nc1ccccc1Oc1cccc(O)c1 , target or system DU-145 prostate.
17.1% [5 µM] (inactive)

Recall the recorded growth for O=C1NC(=O)/C(=C/c2ccc(Cl)cc2Cl)N1 with DU-145 prostate and state it.
117% (inactive)

Item: O=C1C(=O)c2c(nc3ccc(Cl)cn23)-c2ccccc21 Test system: DU-145 prostate Read-out: growth Value: ?
-100% (active)

What value of growth on DU-145 prostate does CCCCCc1c(C)[nH]c(/C=C2\N=C(c3ccc[nH]3)C=C2Oc2ccccc2)c1C have?
-68.1% [100 µM] (active)
